system: Saccharomyces cerevisiae; experiment: protein stability index of tFT-peptide fusion (C-terminal peptide) (PSI (0-1 scale)); higher = more stable (slower turnover); conditions: genetic background: cdc53-1; temperature: 37 C;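 further: PSI is a weighted mean of sequencing reads over stability bins, variants kept only with over 10 reads, mCherry proximal and sfGFP distal, peptide attached via GGGS linker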
reported-endpoint: protein stability index
Format: numeric value only, no unit, no commentary.

[[record]]
biosequence = "VFLVFSVWVVYR"
obs_value = 0.304

[[record]]
biosequence = "SLRSLYLLARLS"
obs_value = 0.689

[[record]]
biosequence = "VAWCVWCWWWAV"
obs_value = 0.322


Exercise: What value of protein stability index has been reported for the following sequence? ASFVCWSVCALG
Solution: 0.545

Exercise: What value of protein stability index has been reported for the following sequence? WVVVGWVGVGFR
Solution: 0.548

Exercise: What value of protein stability index has been reported for the following sequence? KSEKTYTYQVIQ
Solution: 0.749

Exercise: What value of protein stability index has been reported for the following sequence? CHFLLPFLFTCA
Solution: 0.28

Exercise: What value of protein stability index has been reported for the following sequence? FTRWLVYCTPLC
Solution: 0.569

Exercise: What value of protein stability index has been reported for the following sequence? LFWCCVGLSVWR
Solution: 0.474
